B1: KCNK9 (parent)
chain: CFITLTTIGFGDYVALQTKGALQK

variants of: B1; experiment: protein stability index of a GFP-peptide fusion (GPS, HEK-293T) (PSI 1-6); higher = more stable; details: c terminus: a fixed tail appended;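 further: lentivirally expressed fusions sorted by FACS into six bins by GFP to DsRed ratio, PSI derived from sequencing read proportions per bin multiplied by bin number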
readout: protein stability index
Answer as a number with no unit attached.

Here is how some variants turned out for protein stability index.
[
  {
    "variant_code": "F2H",
    "readout": "protein stability index",
    "val": 2.03
  },
  {
    "variant_code": "T4Q",
    "readout": "protein stability index",
    "val": 1.99
  },
  {
    "variant_code": "F2D",
    "readout": "protein stability index",
    "val": 1.99
  }
]

For this variant ( D12Q ), measured protein stability index is 2.05

// field: protein stability index; key: F2G ; value = 2.02

// protein stability index lookup, variant = F10A , result: 2.05
